- System: PfAP2-I AP2 domain 3 (GST-tagged)
- measurement description: gcPBM binding intensity (ln(normalized median fluorescence intensity)); higher = stronger DNA binding
Over roughly 25,000 sequences, “ln(normalized median fluorescence intensity)” has its median near 7.9; the highest 2% begin near 11. The full list was thinned out, with the highest values kept by preference.
Recorded gcPBM binding intensity (ln) for the following sequences
Lab note: jot down the number only; don't add units.

>>> value_observed("ACCCATTTTAATTTAGTGCACATTTTACCTTTATAC")
11.4

Now, please, on to the next sequence.
Q: Report measured gcPBM binding intensity (ln); entry is AACTAATAGTATATTACATGCAAAAGTAAAAGTAAA [TGCATGCA_site411]
A: 8.02
